Experiment: self-splicing fitness, log relative to wild type (ln ratio); higher = more splicing; Tetrahymena group I intron in knt gene, E. coli kanamycin selection, DiMSum; sequences stand for … in CUCUCU…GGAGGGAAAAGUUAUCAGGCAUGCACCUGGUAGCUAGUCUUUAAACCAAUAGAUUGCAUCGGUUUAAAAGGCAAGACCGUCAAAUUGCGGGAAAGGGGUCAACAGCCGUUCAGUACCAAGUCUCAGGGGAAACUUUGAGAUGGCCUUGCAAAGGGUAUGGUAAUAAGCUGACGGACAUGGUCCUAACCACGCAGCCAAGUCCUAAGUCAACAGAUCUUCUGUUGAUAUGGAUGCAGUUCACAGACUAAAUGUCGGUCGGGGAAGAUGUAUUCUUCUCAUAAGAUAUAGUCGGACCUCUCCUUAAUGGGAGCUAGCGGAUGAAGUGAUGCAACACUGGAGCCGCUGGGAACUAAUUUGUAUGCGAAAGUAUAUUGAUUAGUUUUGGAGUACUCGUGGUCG;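 further: selection with 25 µg/mL kanamycin versus none on LB agar overnight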
Settings: 30 °C
Decide using self-splicing fitness (ln): a value greater than or equal to -2 is 1.0, a smaller one is 0.0.

Is it the case that UCUAAGCAAUAUUACGAGUA has self-splicing fitness (ln) reaching or exceeding -2?
0.0

Is it the case that GGCAAGCAAUAUUACGCCUA has self-splicing fitness (ln) reaching or exceeding -2?
1.0

Is it the case that UCCCAGCAAUAUUACGAUAC has self-splicing fitness (ln) reaching or exceeding -2?
0.0

Is it the case that AUGGAGCAAUAUUACGUAAU has self-splicing fitness (ln) reaching or exceeding -2?
1.0

Is it the case that UCGAAGCAAUAUUACGUGUU has self-splicing fitness (ln) reaching or exceeding -2?
0.0

Is it the case that ACGAAGCAAUAUUACGCGGU has self-splicing fitness (ln) reaching or exceeding -2?
0.0

Is it the case that CUAAAGCAAUAUUACGGUGA has self-splicing fitness (ln) reaching or exceeding -2?
0.0

Is it the case that CAUGAGCAAUAUUACGCCAG has self-splicing fitness (ln) reaching or exceeding -2?
1.0

Is it the case that CGCCAGCAAUAUUACGAGGC has self-splicing fitness (ln) reaching or exceeding -2?
0.0

Is it the case that UCUCAGCAAUAUUACGUGUA has self-splicing fitness (ln) reaching or exceeding -2?
1.0

Is it the case that ACUUAGCAAUAUUACGGAGU has self-splicing fitness (ln) reaching or exceeding -2?
0.0

Is it the case that UGGCAGCAAUAUUACGCUAC has self-splicing fitness (ln) reaching or exceeding -2?
0.0

Is it the case that UUAUAGCAAUAUUACGUUUA has self-splicing fitness (ln) reaching or exceeding -2?
0.0

Is it the case that UGUAAGCAAUAUUACGACUU has self-splicing fitness (ln) reaching or exceeding -2?
1.0

Is it the case that AGACAGCAAUAUUACGGUUU has self-splicing fitness (ln) reaching or exceeding -2?
0.0

Is it the case that CACAAGCAAUAUUACGAGUU has self-splicing fitness (ln) reaching or exceeding -2?
0.0

Is it the case that CAUGAGCAAUAUUACGUUUU has self-splicing fitness (ln) reaching or exceeding -2?
0.0

Is it the case that CUAGAGCAAUAUUACGAGGU has self-splicing fitness (ln) reaching or exceeding -2?
0.0

Is it the case that ACGCAGCAAUAUUACGCUAG has self-splicing fitness (ln) reaching or exceeding -2?
0.0

Is it the case that GGGCAGCAAUAUUACGUUUC has self-splicing fitness (ln) reaching or exceeding -2?
0.0

Is it the case that AACAAGCAAUAUUACGCUUA has self-splicing fitness (ln) reaching or exceeding -2?
0.0

Is it the case that GCCGAGCAAUAUUACGGCCA has self-splicing fitness (ln) reaching or exceeding -2?
1.0

Is it the case that GACUAGCAAUAUUACGGGUA has self-splicing fitness (ln) reaching or exceeding -2?
1.0

Is it the case that CGGCAGCAAUAUUACGGGUC has self-splicing fitness (ln) reaching or exceeding -2?
0.0

Is it the case that UUGUAGCAAUAUUACGUCUU has self-splicing fitness (ln) reaching or exceeding -2?
1.0

Is it the case that AACCAGCAAUAUUACGCACC has self-splicing fitness (ln) reaching or exceeding -2?
1.0

Is it the case that AAUAAGCAAUAUUACGCACC has self-splicing fitness (ln) reaching or exceeding -2?
1.0

###

Test: self-splicing fitness, log relative to wild type (ln ratio); higher = more splicing; Tetrahymena group I intron in knt gene, E. coli kanamycin selection, DiMSum; sequences stand for … in CUCUCU…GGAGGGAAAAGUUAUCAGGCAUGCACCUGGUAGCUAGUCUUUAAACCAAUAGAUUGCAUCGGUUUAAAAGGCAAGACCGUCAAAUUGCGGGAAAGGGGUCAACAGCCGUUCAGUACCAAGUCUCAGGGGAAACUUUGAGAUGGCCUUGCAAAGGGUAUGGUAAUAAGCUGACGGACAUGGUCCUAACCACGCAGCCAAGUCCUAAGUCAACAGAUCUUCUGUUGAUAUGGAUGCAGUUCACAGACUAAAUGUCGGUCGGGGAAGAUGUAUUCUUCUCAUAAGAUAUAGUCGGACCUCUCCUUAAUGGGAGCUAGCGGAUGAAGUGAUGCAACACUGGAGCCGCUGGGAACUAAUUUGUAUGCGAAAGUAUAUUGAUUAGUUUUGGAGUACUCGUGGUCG
Conditions: 37 °C
Give measured self-splicing fitness (ln) for each item. Keep answers brief.
Just the number, please, no unit attached.

Note down self-splicing fitness (ln) recorded for UCUCAGCAAUAUUACGCGAG
-0.582

Note down self-splicing fitness (ln) recorded for GACUAGCAAUAUUACGAAAC
-0.114

Note down self-splicing fitness (ln) recorded for GCAAAGCAAUAUUACGACGA
-0.213

Note down self-splicing fitness (ln) recorded for UGUAAGCAAUAUUACGUGGG
-2.42

###

Test: self-splicing fitness, log relative to wild type (ln ratio); higher = more splicing; Tetrahymena group I intron in knt gene, E. coli kanamycin selection, DiMSum; sequences stand for … in CUCUCU…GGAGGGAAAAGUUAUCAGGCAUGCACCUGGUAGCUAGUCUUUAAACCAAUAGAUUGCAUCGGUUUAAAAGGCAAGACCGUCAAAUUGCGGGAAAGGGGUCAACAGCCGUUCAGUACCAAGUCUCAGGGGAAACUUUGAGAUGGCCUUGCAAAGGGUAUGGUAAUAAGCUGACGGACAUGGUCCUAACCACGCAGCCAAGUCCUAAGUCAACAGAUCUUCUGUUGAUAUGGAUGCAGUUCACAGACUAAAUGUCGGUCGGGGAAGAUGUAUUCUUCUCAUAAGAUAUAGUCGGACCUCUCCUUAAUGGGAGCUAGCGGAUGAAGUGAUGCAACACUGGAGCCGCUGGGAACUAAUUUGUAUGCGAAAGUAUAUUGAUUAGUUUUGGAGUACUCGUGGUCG
Conditions: 37 °C
Decide using self-splicing fitness (ln): a value greater than or equal to -1 is rule met, a smaller one is rule not met.

Is it the case that UGGCAGCAAUAUUACGCCGU has self-splicing fitness (ln) reaching or exceeding -1?
rule not met

Is it the case that AUCGAGCAAUAUUACGAGAU has self-splicing fitness (ln) reaching or exceeding -1?
rule not met

Is it the case that GUAUAGCAAUAUUACGGCGU has self-splicing fitness (ln) reaching or exceeding -1?
rule met

Is it the case that UUUCAGCAAUAUUACGUCGC has self-splicing fitness (ln) reaching or exceeding -1?
rule not met

Is it the case that UGUUAGCAAUAUUACGCUCA has self-splicing fitness (ln) reaching or exceeding -1?
rule met

Is it the case that AGACAGCAAUAUUACGAAGC has self-splicing fitness (ln) reaching or exceeding -1?
rule not met

Is it the case that AGACAGCAAUAUUACGGUUU has self-splicing fitness (ln) reaching or exceeding -1?
rule not met

Is it the case that UAACAGCAAUAUUACGAGAG has self-splicing fitness (ln) reaching or exceeding -1?
rule not met

Is it the case that CAGAAGCAAUAUUACGUACU has self-splicing fitness (ln) reaching or exceeding -1?
rule not met

Is it the case that CAUAAGCAAUAUUACGGUCA has self-splicing fitness (ln) reaching or exceeding -1?
rule not met

Is it the case that CACGAGCAAUAUUACGACCU has self-splicing fitness (ln) reaching or exceeding -1?
rule not met

Is it the case that GCUUAGCAAUAUUACGCAGA has self-splicing fitness (ln) reaching or exceeding -1?
rule not met

Is it the case that AAUAAGCAAUAUUACGGUCC has self-splicing fitness (ln) reaching or exceeding -1?
rule met

Is it the case that UGAAAGCAAUAUUACGGAUG has self-splicing fitness (ln) reaching or exceeding -1?
rule met

Is it the case that UUUUAGCAAUAUUACGAGCA has self-splicing fitness (ln) reaching or exceeding -1?
rule met

Is it the case that CAGCAGCAAUAUUACGCCAG has self-splicing fitness (ln) reaching or exceeding -1?
rule met

Is it the case that GAUGAGCAAUAUUACGGCUC has self-splicing fitness (ln) reaching or exceeding -1?
rule not met

Is it the case that GUUUAGCAAUAUUACGGAUG has self-splicing fitness (ln) reaching or exceeding -1?
rule not met

Is it the case that UUGAAGCAAUAUUACGUUAU has self-splicing fitness (ln) reaching or exceeding -1?
rule met

Is it the case that GAGCAGCAAUAUUACGGGCU has self-splicing fitness (ln) reaching or exceeding -1?
rule not met

Is it the case that ACCGAGCAAUAUUACGCGAC has self-splicing fitness (ln) reaching or exceeding -1?
rule not met

Is it the case that UGCCAGCAAUAUUACGGCUA has self-splicing fitness (ln) reaching or exceeding -1?
rule met

Is it the case that GCACAGCAAUAUUACGGCUG has self-splicing fitness (ln) reaching or exceeding -1?
rule not met

Is it the case that AACUAGCAAUAUUACGUUAU has self-splicing fitness (ln) reaching or exceeding -1?
rule not met

Is it the case that AGCGAGCAAUAUUACGAGGA has self-splicing fitness (ln) reaching or exceeding -1?
rule not met

Is it the case that GAUAAGCAAUAUUACGCUGU has self-splicing fitness (ln) reaching or exceeding -1?
rule not met

Is it the case that CCGUAGCAAUAUUACGCGUA has self-splicing fitness (ln) reaching or exceeding -1?
rule not met

Is it the case that CGGUAGCAAUAUUACGUGCA has self-splicing fitness (ln) reaching or exceeding -1?
rule met

Is it the case that GGUUAGCAAUAUUACGGUCG has self-splicing fitness (ln) reaching or exceeding -1?
rule met

Is it the case that UAGUAGCAAUAUUACGCGAU has self-splicing fitness (ln) reaching or exceeding -1?
rule met

Is it the case that GUCAAGCAAUAUUACGUCUG has self-splicing fitness (ln) reaching or exceeding -1?
rule met

Is it the case that GUCGAGCAAUAUUACGUAAC has self-splicing fitness (ln) reaching or exceeding -1?
rule met

Is it the case that GGGAAGCAAUAUUACGGAUC has self-splicing fitness (ln) reaching or exceeding -1?
rule met

Is it the case that UCAUAGCAAUAUUACGAAAU has self-splicing fitness (ln) reaching or exceeding -1?
rule not met

Is it the case that CACGAGCAAUAUUACGAGCU has self-splicing fitness (ln) reaching or exceeding -1?
rule not met

Is it the case that UUGCAGCAAUAUUACGACAA has self-splicing fitness (ln) reaching or exceeding -1?
rule met

Is it the case that UUUCAGCAAUAUUACGUAUU has self-splicing fitness (ln) reaching or exceeding -1?
rule not met

Is it the case that GGACAGCAAUAUUACGAAUA has self-splicing fitness (ln) reaching or exceeding -1?
rule met

Is it the case that GCACAGCAAUAUUACGGUCU has self-splicing fitness (ln) reaching or exceeding -1?
rule met

Is it the case that GAGAAGCAAUAUUACGCUCU has self-splicing fitness (ln) reaching or exceeding -1?
rule not met
